Where do the numbers come from? From ChEMBL document CHEMBL1955799.

assay.summary: Antioxidant activity assessed as hydroxyl radical scavenging activity at 2.5 mM by electron spin resonance method
Format: functional
Classify as follows. Reported inhibition greater than or equal to 70%: criterion met. Reported inhibition below: criterion not met.

Completed entries (count: 5):
Does the reported inhibition for `CC(C)C[C@@H]1NC(=O)[C@H](CCCCN)NC1=O` fall at or above the 70% mark?
criterion met

And what about the compound `CC(C)C[C@@H]1NC(=O)[C@H](CC(N)=O)NC1=O` ?
criterion met

Thanks! And `CC(C)C[C@@H]1NC(=O)[C@H](Cc2ccccc2)NC1=O` ?
criterion not met

How about `CC(C)C[C@@H]1NC(=O)CNC1=O` ?
criterion not met

Let us now turn to `CSCC[C@@H]1NC(=O)[C@H](CC(C)C)NC1=O`
criterion met

***
Check if inhibition >= 70% (inclusive). Item: `CC(C)C[C@@H]1NC(=O)[C@H](CC(C)C)NC1=O`
criterion not met

Can you handle `CC(C)C[C@@H]1NC(=O)[C@H](Cc2cnc[nH]2)NC1=O` next?
criterion met

Next compound up: `CC(C)C[C@@H]1NC(=O)[C@H](CC(=O)O)NC1=O`
criterion met

* * *

assay.summary: Antioxidant activity assessed as hydroxyl radical scavenging activity at 2.5 mM by electron spin resonance method
Assay type: functional
// inhibition lookup, one value per entry
Record the value in %, omitting the unit from your answer.

Answered examples (7):
Request the reported inhibition associated with `CC(C)C[C@@H]1NC(=O)[C@@H]2CCCN2C1=O`
86.2

Repeat with `CC(C)C[C@@H]1NC(=O)[C@H](Cc2c[nH]c3ccccc23)NC1=O`
66

Proceed to `CC(C)C[C@@H]1NC(=O)[C@H](CCC(=O)O)NC1=O`
97.8

Now consider `CC(C)C[C@@H]1NC(=O)[C@H](C(C)C)NC1=O` .
12.3

Same question, `CC(C)C[C@@H]1NC(=O)[C@H]([C@@H](C)O)NC1=O` this time
0

How about this molecule: `CC(C)C[C@@H]1NC(=O)[C@H](CS)NC1=O`
88.9

Likewise for `CC(C)C[C@@H]1NC(=O)[C@H](CCC(N)=O)NC1=O` ?
19

Now let's try a different one.
Find the recorded inhibition belonging to `CC(C)C[C@@H]1NC(=O)[C@H](CO)NC1=O` and report it.
95.2
